Listing: Activity_index of selected compounds
- PROTOCOL DETAILS: Ulcerogenic activity in Wistar rat assessed as incidence of gastric ulceration by measuring severity index at 60 mg/kg, po measured after 17 hrs by microscopic analysis
- Type: toxicity, organism-based
- APPLIED CONDITIONS: in vivo
Please give only the number in your answer, with no unit.

Reference set, count: 6
O=C(/C=C/c1ccc(O)c(O)c1)NNC(=O)COc1ccc2ccccc2c1	0.57
O=C(/C=C/c1ccc(O)c(O)c1)NNC(=O)COc1cccc2cccnc12	0.53
Cc1ccccc1OCC(=O)NNC(=O)/C=C/c1ccc(O)c(O)c1	0.58
O=C(/C=C/c1ccc(O)c(O)c1)NNC(=O)COc1cccnc1	0.4
Cc1ccc2cccc(OCC(=O)NNC(=O)/C=C/c3ccc(O)c(O)c3)c2n1	0.57
O=C(/C=C/c1ccc(O)c(O)c1)NNC(=O)COc1ccc(Br)cc1	0.78

I have this compound here, "O=C(/C=C/c1ccc(O)c(O)c1)NNC(=O)COc1ccc(Cl)cc1" , and I need its recorded Activity_index.
0.76

What about this compound? "Cc1ccc(OCC(=O)NNC(=O)/C=C/c2ccc(O)c(O)c2)cc1"
0.38

What about this compound? "O=C(/C=C/c1ccc(O)c(O)c1)NNC(=O)COc1cccc2ccccc12"
0.46

What about this compound? "Cc1ccc(OCC(=O)NNC(=O)/C=C/c2ccc(O)c(O)c2)c(C)c1"
0.26

###

Listing: Activity of selected compounds
- System: Mus musculus
- PROTOCOL DETAILS: Analgesic activity in Swiss albino mouse assessed as inhibition of acetic acid-induced writhing at 20 mg/kg, po administered 30 mins prior to acetic acid treatment and measured for 20 mins
- Format: functional
- Design: scale not given: the % may be the effect or the level left
- APPLIED CONDITIONS: time 50 min
Record the value in %, omitting the unit from your answer.

Cc1ccc2cccc(OCC(=O)NNC(=O)/C=C/c3ccc(O)c(O)c3)c2n1	49.02

I have this compound here, "O=C(/C=C/c1ccc(O)c(O)c1)NNC(=O)COc1cccc2ccccc12" , and I need its recorded Activity.
50.7

What about this compound? "Cc1ccccc1OCC(=O)NNC(=O)/C=C/c1ccc(O)c(O)c1"
49.18

What about this compound? "O=C(/C=C/c1ccc(O)c(O)c1)NNC(=O)COc1cccnc1"
53.41
